# method notes: Phenomenex Kinetex XB-C18, 100 × 2.1 mm, 1.7 µm, 35 °C, 0.3 mL/min, estimated dead time 0.73 min; A: water + 0.1% formic acid; B: acetonitrile + 0.1% formic acid; gradient (min/%B) 0/5 1/5 2/10 9/33 15/46 16/70 21/90 22/90
# assay context: stereoisomer not certain
metric name: LC retention time (min)
Report as a plain number; the unit min is understood.

Entry CC(C)=CCCC(C)(OC1OC(CO)C(O)C(O)C1O)C1CCC2(C)C1C(O)CC1C3(C)CCC(O)C(C)(C)C3CCC12C (stereo unspecified) , LC retention time reported as 17.3

Looking up COc1cc(C=CC(=O)O)ccc1O , I see its LC retention time listed as 5.97

Recorded LC retention time (compound O=C(C=Cc1ccc(O)cc1)C1=C(O)C2=C(OC3(C2)OCC(O)C(O)C3O)C(O)(C2OC(CO)C(O)C(O)C2O)C1=O (stereo unspecified) ): 6.76

O=c1c(O)c(-c2ccc(O)c(O)c2)oc2cc(O)cc(O)c12 yielded LC retention time of 8.93

Lab note: measured LC retention time of CC(C)=CCCC(C)(OC1OC(COC2OC(CO)C(O)C(O)C2O)C(O)C(O)C1O)C1CCC2(C)C1C(O)CC1C3(C)CCC(OC4OC(CO)C(O)C(O)C4OC4OC(COC(=O)CC(=O)O)C(O)C(O)C4O)C(C)(C)C3CCC12C (stereo unspecified) was 11.1

Reported LC retention time of CC(C)=CCCC(C)(OC1OC(COC2OC(COC3OCC(O)C(O)C3O)C(O)C(O)C2O)C(O)C(O)C1O)C1CCC2(C)C1C(O)CC1C3(C)CCC(OC4OC(CO)C(O)C(O)C4OC4OC(CO)C(O)C(O)C4O)C(C)(C)C3CCC12C (stereo unspecified) : 10.2

###

Record form. Attribute: LC retention time. Fill in for each entry.
# method notes: Phenomenex Kinetex XB-C18, 100 × 2.1 mm, 1.7 µm, 35 °C, 0.3 mL/min, estimated dead time 0.73 min; A: water + 0.1% formic acid; B: acetonitrile + 0.1% formic acid; gradient (min/%B) 0/5 1/5 2/10 9/33 15/46 16/70 21/90 22/90
# assay context: stereoisomer not certain
Numeric answer only, unit min assumed.

The measured LC retention time associated with CC(C)=CCCC(C)(OC1OC(CO)C(O)C(O)C1O)C1CCC2(C)C1C(O)CC1C3(C)CCC(OC4OC(CO)C(O)C(O)C4OC4OC(CO)C(O)C(O)C4O)C(C)(C)C3CCC12C (stereo not drawn) reads 12.4

Item: CC(C)=CCCC(C)(OC1OC(CO)C(O)C(O)C1O)C1CCC2(C)C1C(O)CC1C3(C)CCC(O)C(C)(C)C3C(OC3OC(COC4OC(CO)C(O)C(O)C4O)C(O)C(O)C3O)CC12C (stereo not drawn) | LC retention time: 7.28

Measured LC retention time, CC(C)=CCCC(C)(OC1OC(COC2OC(CO)C(O)C(OC3OCC(O)C(O)C3O)C2O)C(O)C(O)C1O)C1CCC2(C)C1C(O)CC1C3(C)CCC(OC4OC(CO)C(O)C(O)C4OC4OC(CO)C(O)C(O)C4OC4OCC(O)C(O)C4O)C(C)(C)C3CCC12C (stereo not drawn) : 9.85

###

# method notes: Phenomenex Kinetex XB-C18, 100 × 2.1 mm, 1.7 µm, 35 °C, 0.3 mL/min, estimated dead time 0.73 min; A: water + 0.1% formic acid; B: acetonitrile + 0.1% formic acid; gradient (min/%B) 0/5 1/5 2/10 9/33 15/46 16/70 21/90 22/90
# assay context: stereoisomer not certain
Please enter yes (1) where LC retention time is greater than or equal to 7 min, and no (0) where it is lower.

Could you please find out whether O=C(C=Cc1ccc(O)cc1)C1=C(O)C2=C(OC(C(O)C(O)C(O)CO)C2C2=C(O)C(=C(O)C=Cc3ccc(O)cc3)C(=O)C(O)(C3OC(CO)C(O)C(O)C3O)C2=O)C(O)(C2OC(CO)C(O)C(O)C2O)C1=O (stereo unspecified) has LC retention time that meets 7 min or exceeds it?
no (0)

Can CC1OC(OCC2OC(Oc3c(-c4ccc(O)cc4)oc4cc(O)cc(O)c4c3=O)C(O)C(O)C2O)C(O)C(O)C1O (stereo unspecified) be said to have LC retention time at or above 7 min?
no (0)

Quick check: does CC(C)=CCCC(C)(OC1OC(CO)C(O)C(O)C1O)C1CCC2(C)C1C(O)CC1C3(C)CCC(OC4OC(CO)C(O)C(O)C4O)C(C)(C)C3CCC12C (stereo unspecified) have LC retention time greater than or equal to 7 min?
yes (1)

Does CC(C)=CCCC(C)(OC1OC(COC2OCC(O)C(O)C2O)C(O)C(O)C1O)C1CCC2(C)C1C(O)CC1C3(C)CCC(OC4OC(CO)C(O)C(O)C4OC4OC(CO)C(O)C(O)C4O)C(C)(C)C3CCC12C (stereo unspecified) have a reported LC retention time of at least 7 min?
yes (1)

Please indicate if the recorded LC retention time for O=c1c(O)c(-c2ccc(O)cc2)oc2cc(O)cc(O)c12 meets or exceeds 7 min.
yes (1)
